Ref: patent US11957759B1

tested system: B-RAF V600E (Homo sapiens, UniProt P15056, V600E)
Construct: expressed in transfected cells; host or cells: T-Rex 293 cells (Invitrogen #R71007)
Sequence (P15056 whole entry V600E): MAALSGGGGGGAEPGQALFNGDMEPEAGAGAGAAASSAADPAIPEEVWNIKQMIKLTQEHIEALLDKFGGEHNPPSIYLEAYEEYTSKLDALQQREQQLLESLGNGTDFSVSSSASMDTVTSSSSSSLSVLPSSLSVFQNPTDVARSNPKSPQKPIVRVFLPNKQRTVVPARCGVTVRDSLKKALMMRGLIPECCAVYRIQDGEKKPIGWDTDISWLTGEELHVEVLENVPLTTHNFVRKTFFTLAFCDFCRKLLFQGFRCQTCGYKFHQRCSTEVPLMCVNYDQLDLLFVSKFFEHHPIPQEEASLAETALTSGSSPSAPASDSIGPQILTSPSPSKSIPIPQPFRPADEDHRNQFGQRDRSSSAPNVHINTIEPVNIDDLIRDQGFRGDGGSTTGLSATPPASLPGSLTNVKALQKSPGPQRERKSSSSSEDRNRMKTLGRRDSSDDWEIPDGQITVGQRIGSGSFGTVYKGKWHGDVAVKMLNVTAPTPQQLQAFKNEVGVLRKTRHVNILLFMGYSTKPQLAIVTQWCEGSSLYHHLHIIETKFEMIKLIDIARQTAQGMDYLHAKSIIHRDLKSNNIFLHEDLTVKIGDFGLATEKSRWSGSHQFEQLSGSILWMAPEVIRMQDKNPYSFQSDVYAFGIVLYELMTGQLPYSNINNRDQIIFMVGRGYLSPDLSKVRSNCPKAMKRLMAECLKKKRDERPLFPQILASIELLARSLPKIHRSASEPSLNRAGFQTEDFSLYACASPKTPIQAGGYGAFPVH
assay method text: Target protein degradation, assay C: T-Rex 293 cells, HA-BRAF_V600E, 384 well format
Assay type: cell-based
run parameters: Assay C, T-Rex 293 HA-BRAF_V600E cells, 24 hours, Examples 83-269
readout label: DC50

Previously resolved entries follow.
INSERT INTO results (molecule, result) VALUES
  ('N#Cc1c(NS(=O)(=O)N2CC[C@@H](F)C2)ccc(F)c1Oc1ccc2ncn(-c3ccc(N4CCC5(CC4)CC(OC4CCN(c6ccc7c(c6)CN([C@@H]6CCC(=O)NC6=O)C7=O)CC4)C5)cc3)c(=O)c2c1', '5 to 50 nM'),
  ('N#Cc1c(NS(=O)(=O)N2CC[C@@H](F)C2)ccc(F)c1Oc1ccc2ncn(-c3ccn(C4CC5(C4)CN(CC4CCN(c6ccc7c(c6)CN(C6CCC(=O)NC6=O)C7=O)CC4)C5)n3)c(=O)c2c1 (stereo partly drawn)', '50 to 500 nM'),
  ('N#Cc1c(NS(=O)(=O)N2CC[C@@H](F)C2)ccc(F)c1Oc1ccc2ncn(-c3ccc(N4CCN(c5ccc(C(=O)NC6CCC(=O)NC6=O)c(F)c5)CC4)nc3)c(=O)c2c1 (stereo partly drawn)', '5 to 50 nM'),
  ('N#Cc1c(NS(=O)(=O)N2CC[C@@H](F)C2)ccc(F)c1Oc1ccc2ncn(-c3ccc(N4CCN(CC5CCN(c6cc7c(c(C(F)(F)F)c6)C(=O)N(C6CCC(=O)NC6=O)C7)CC5)CC4)cc3)c(=O)c2c1 (stereo partly drawn)', '50 to 500 nM');

// each molecule listed below needs its DC50
1. N#Cc1c(NS(=O)(=O)N2CC[C@@H](F)C2)ccc(F)c1Oc1ccc2ncn(-c3ccc(N4CC5(CN(CC6CCN(c7ccc8c(c7)C(=O)N(C7CCC(=O)NC7=O)C8=O)CC6)C5)C4)nc3)c(=O)c2c1 (stereo partly drawn)
2. N#Cc1c(NS(=O)(=O)N2CC[C@@H](F)C2)ccc(F)c1Oc1ccc2ncn(-c3ccc(N4CCC5(CCN(c6ccc7c(c6)C(=O)N(C6CCC(=O)NC6=O)C7=O)CC5)CC4)nc3)c(=O)c2c1 (stereo partly drawn)
3. N#Cc1c(NS(=O)(=O)N2CC[C@@H](F)C2)ccc(F)c1Oc1ccc2ncn(-c3ccc(C4CCN(CC5CN(c6ccc7c(c6)CN([C@H]6CCC(=O)NC6=O)C7=O)C5)CC4)cc3)c(=O)c2c1
4. CN(c1ccc2c(c1)CN([C@H]1CCC(=O)NC1=O)C2=O)C1CCC2(CC1)CCN(CC1CCN(c3ccc(-n4cnc5ccc(Oc6c(F)ccc(NS(=O)(=O)N7CC[C@@H](F)C7)c6C#N)cc5c4=O)cc3)CC1)CC2
5. COc1cc(-n2cnc3ccc(Oc4c(F)ccc(NS(=O)(=O)N5CC[C@@H](F)C5)c4C#N)cc3c2=O)ccc1N1CCN(CC2CCN(c3ccc4c(c3)CN(C3CCC(=O)NC3=O)C4=O)CC2)CC1 (stereo partly drawn)

["50 to 500 nM", "50 to 500 nM", "50 to 500 nM", "50 to 500 nM", "5 to 50 nM"]

====

tested system: B-RAF G466V (Homo sapiens, UniProt P15056, G466V)
Construct: expressed in transfected cells; host or cells: T-Rex 293 cells (Invitrogen #R71007)
Sequence (P15056 whole entry G466V): as the sequence (P15056 whole entry V600E) above, with G466V, E600V counted along it
assay method text: Target protein degradation, assay D: T-Rex 293 cells, HA-BRAF_G466V, 384 well format
Format: cell-based
run parameters: T-REx-293, Assay D, T-Rex 293 HA-BRAF_G466V cells, 24 hours, Examples 83-269
readout label: Dmax

Parameters: items (list). Returns: Dmax for each item.
1. N#Cc1c(NS(=O)(=O)N2CC[C@@H](F)C2)ccc(F)c1Oc1ccc2ncn(-c3ccc(N4CC5(CN(CC6CCN(c7cccc8c7C(=O)N(C7CCC(=O)NC7=O)C8=O)CC6)C5)C4)nc3)c(=O)c2c1 (some centres unmarked)
2. N#Cc1c(NS(=O)(=O)N2CC[C@@H](F)C2)ccc(F)c1Oc1ccc2ncn(-c3cnc(N4CCN(CCN5CCN(c6ccc(C7CCC(=O)NC7=O)cc6F)CC5)CC4)nc3)c(=O)c2c1 (some centres unmarked)
3. Cc1cc(N2CCC(CN3CCN(c4ccc(-n5cnc6ccc(Oc7c(F)ccc(NS(=O)(=O)N8CC[C@@H](F)C8)c7C#N)cc6c5=O)cc4)CC3)CC2)c(F)c2c1C(=O)N(C1CCC(=O)NC1=O)C2 (some centres unmarked)
4. N#Cc1c(NS(=O)(=O)N2CC[C@@H](F)C2)ccc(F)c1Oc1ccc2ncn(-c3ccc(N4CCC(CN5CC6(CCN(c7ccc8c(c7)CN([C@H]7CCC(=O)NC7=O)C8=O)CC6)C5)CC4)cc3)c(=O)c2c1
5. COc1cc(-n2cnc3ccc(Oc4c(F)ccc(NS(=O)(=O)N5CC[C@@H](F)C5)c4C#N)cc3c2=O)ccc1N1CCN(CC2CCN(c3ccc4c(c3)CN(C3CCC(=O)NC3=O)C4=O)CC2)CC1 (some centres unmarked)

1: ≤ 35%; 2: 35 to 70%; 3: ≤ 35%; 4: ≥ 70%; 5: 35 to 70%

====

Field: DC50. Provide a value for each of the compounds that follow.
tested system: B-RAF V600E (Homo sapiens, UniProt P15056, V600E)
Construct: expressed in transfected cells; host or cells: T-Rex 293 cells (Invitrogen #R71007)
assay method text: Target protein degradation, assay A: T-Rex 293 cells, HA-B-RAF_V600E, 96 well format
Format: cell-based
run parameters: T-Rex 293 HA-B-RAF_V600E cells, 24 hours, Examples 1-82

Please review the following examples before continuing.
INSERT INTO assay_data (compound, readout_label, result) VALUES
  ('N#Cc1c(NS(=O)(=O)N2CC[C@@H](F)C2)ccc(F)c1Oc1ccc2ncn(-c3ccc(N4CCN(CCN5CCN(c6ccc7c(c6)CN(C6CCC(=O)NC6=O)C7=O)CC5)CC4)cc3)c(=O)c2c1 (some centres unmarked) [Example 10]', 'DC50', '> 0.5 µM'),
  ('N#Cc1c(NS(=O)(=O)N2CC[C@@H](F)C2)ccc(F)c1Oc1ccc2ncn(-c3ccc(N4CCN(C(=O)CC5(O)CCN(c6ccc7c(c6)CN([C@H]6CCC(=O)NC6=O)C7=O)CC5)CC4)nc3)c(=O)c2c1 [Example 65]', 'DC50', '> 0.5 µM'),
  ('N#Cc1c(NS(=O)(=O)N2CC[C@@H](F)C2)ccc(F)c1Oc1ccc2ncn(-c3ccc(N4CCC(c5ccc6c(c5)C(=O)N(C5CCC(=O)NC5=O)C6)CC4)cc3)c(=O)c2c1 (some centres unmarked) [Example 32]', 'DC50', '0.05 to 0.5 µM'),
  ('N#Cc1c(NS(=O)(=O)N2CC[C@@H](F)C2)ccc(F)c1Oc1ccc2ncn(C3CCN(CCN4CCN(c5ccc6c(c5)CN(C5CCC(=O)NC5=O)C6=O)CC4)CC3)c(=O)c2c1 (some centres unmarked) [Example 7]', 'DC50', '> 0.5 µM');

# query: DC50 of entry N#Cc1c(NS(=O)(=O)N2CC[C@@H](F)C2)ccc(F)c1Oc1ccc2ncn(-c3ccc(N4CCN(c5ccc(C(=O)NC6CCC(=O)NC6=O)c(F)c5)CC4)cc3)c(=O)c2c1 (some centres unmarked) [Example 72]
> 0.5 µM

====

What Dmax was measured for each of the following?
tested system: B-RAF V600E (Homo sapiens, UniProt P15056, V600E)
Construct: expressed in transfected cells; host or cells: T-Rex 293 cells (Invitrogen #R71007)
assay method text: Target protein degradation, assay C: T-Rex 293 cells, HA-BRAF_V600E, 384 well format
Format: cell-based
run parameters: T-REx-293, Assay C, T-Rex 293 HA-BRAF_V600E cells, 24 hours, Examples 83-269
Method: C. T-Rex 293 Cells (384 Well Format) T-Rex 293 cells were purchased from Invitrogen (#R71007), and stably transfected with a pcDNA4/TO_HA-BRAF_V600E construct, using 400 ug Zeocin for selection. […] BRAF intensity is quantified in HCS Studio software (ThermoFisher), using a custom script, exported, analyzed using KNIME, and curve curation is performed in an ELN (Scilligence). Cell toxicity is measured via comparing number of nuclei in PROTAC treated wells to DMSO controls. […]

Completed entries (count: 4):
INSERT INTO assay_data (compound, result) VALUES
  ('N#Cc1c(NS(=O)(=O)N2CC[C@@H](F)C2)ccc(F)c1Oc1ccc2ncn(-c3cnc(C4(N5CCN(CC6CN(c7ccc8c(c7)CN(C7CCC(=O)NC7=O)C8=O)C6)CC5)CC4)nc3)c(=O)c2c1 (some centres unmarked) [Example 99]', '35 to 70%'),
  ('N#Cc1c(NS(=O)(=O)N2CC[C@@H](F)C2)ccc(F)c1Oc1ccc2ncn(-c3ccc(C4CCN(CC5CCN(c6ccc7c(c6)CN([C@H]6CCC(=O)NC6=O)C7=O)CC5)C4)cc3)c(=O)c2c1 (some centres unmarked) [Example 208]', '35 to 70%'),
  ('N#Cc1c(NS(=O)(=O)N2CC[C@@H](F)C2)ccc(F)c1Oc1ccc2ncn(-c3cccc(C4CCN(CC5CCN(c6ccc7c(c6)CN([C@H]6CCC(=O)NC6=O)C7=O)CC5)C4)c3)c(=O)c2c1 (some centres unmarked) [Example 211]', '35 to 70%'),
  ('N#Cc1c(NS(=O)(=O)N2CC[C@@H](F)C2)ccc(F)c1Oc1ccc2ncn(-c3ccc(N4CCC(CN5CCC(c6ccc([C@H]7CCC(=O)NC7=O)cc6F)CC5)CC4)cc3)c(=O)c2c1 [Example 187]', '≥ 70%');

# input for lookup
Please look up its Dmax: N#Cc1c(NS(=O)(=O)N2CC[C@@H](F)C2)ccc(F)c1Oc1ccc2ncn(-c3cccc(N4CCCC(CN5CCN(c6ccc7c(c6)CN([C@H]6CCC(=O)NC6=O)C7=O)CC5)C4)c3)c(=O)c2c1 (some centres unmarked) [Example 93]
35 to 70%
